- Test system: U2OS
- assay_notes: cell viability relative to DMSO; higher = less toxic
- condition_info: 72 h; 100 nM
property_label: cell viability

{"molecule": "Cc1c(N(C)C)c(=O)n(-c2ccccc2)n1C [amidopyrine]", "property_label": "cell viability", "test_result": "93.2%"}
{"molecule": "CCOc1ccc(Cc2nccc3cc(OCC)c(OCC)cc23)cc1OCC [ethaverine]", "property_label": "cell viability", "test_result": "95.4%"}
{"molecule": "O=C(O)Cc1ccc(CCNS(=O)(=O)c2ccc(Cl)cc2)cc1 [daltroban]", "property_label": "cell viability", "test_result": "99.2%"}
{"molecule": "CS(=O)(=O)c1ccc(-c2cnc(N)c(C(=O)Nc3ccccc3)n2)cc1 [VE-821]", "property_label": "cell viability", "test_result": "96.9%"}
{"molecule": "CCCCc1ccc(C(N)=O)nc1 [bupicomide]", "property_label": "cell viability", "test_result": "103%"}
{"molecule": "Cc1cc(O)cc2c1O[C@](C)(CCC[C@H](C)CCC[C@H](C)CCCC(C)C)CC2 [D-delta-tocopherol]", "property_label": "cell viability", "test_result": "96.9%"}
{"molecule": "Cn1c(=O)c2c(ncn2CC(=O)O)n(C)c1=O [acefylline]", "property_label": "cell viability", "test_result": "96.8%"}
{"molecule": "C[C@@H]1CCO[C@H]2Cn3cc(C(=O)NCc4ccc(F)cc4F)c(=O)c(O)c3C(=O)N12 [dolutegravir]", "property_label": "cell viability", "test_result": "104%"}
{"molecule": "CN1CCN(CCOc2cc(OC3CCOCC3)c3c(Nc4c(Cl)ccc5c4OCO5)ncnc3c2)CC1 [saracatinib]", "property_label": "cell viability", "test_result": "88.8%"}
{"molecule": "NC(=O)CCCCC1CCSS1 (stereo not given) [lipoamide]", "property_label": "cell viability", "test_result": "99.1%"}
{"molecule": "Oc1cc(O)c2c(c1)O[C@H](c1ccc(O)c(O)c1)[C@@H](O)C2 [cianidanol]", "property_label": "cell viability", "test_result": "95.6%"}
{"molecule": "CC(CC(C(N)=O)(c1ccccc1)c1ccccc1)N(C)C (stereo not given) [aminopentamide]", "property_label": "cell viability", "test_result": "101%"}
{"molecule": "O=C1C[C@@H]2OCC=C3CN4CC[C@]56c7ccccc7N1[C@H]5[C@H]2[C@H]3C[C@H]46 [strychnine]", "property_label": "cell viability", "test_result": "96.8%"}
{"molecule": "O=C(O)Cn1c(C(=O)Nc2nc(-c3ccccc3Cl)cs2)cc2ccccc21", "property_label": "cell viability", "test_result": "95.6%"}
{"molecule": "C=Cc1c(C)c2cc3nc(c(CC(=O)O)c4[n-]c(cc5nc(cc1[n-]2)C(C)=C5CC)c(C)c4C(=O)O)[C@@H](CCC(=O)O)[C@@H]3C.[Cu+2] [chlorophyllin-copper]", "property_label": "cell viability", "test_result": "98.7%"}
{"molecule": "CCN(CC)CCCCC1CCN(CC(=O)N2c3ccccc3C(=O)Nc3cccnc32)CC1 [AQ-RA741]", "property_label": "cell viability", "test_result": "105%"}
{"molecule": "CC[C@@H](C)c1ccc(NC(=O)Cn2cnc3c2c(=O)n(C)c(=O)n3C)cc1 (racemic)", "property_label": "cell viability", "test_result": "98.3%"}
{"molecule": "CCOc1cc(N)c(Cl)cc1C(=O)NCC1CN(Cc2ccc(F)cc2)CCO1 (stereo not given) [mosapride]", "property_label": "cell viability", "test_result": "99%"}
{"molecule": "Nc1ncnc2c1c(-c1ccc(Oc3ccccc3)cc1)nn2C1CCCC1", "property_label": "cell viability", "test_result": "101%"}
{"molecule": "O=C(O)c1nc(=O)[nH]c(=O)[nH]1 [oxonic-acid]", "property_label": "cell viability", "test_result": "99.6%"}
{"molecule": "COc1cc(N2CCC(N3CCN(C)CC3)CC2)ccc1Nc1ncc(Cl)c(Nc2ccccc2S(=O)(=O)C(C)C)n1 [NVP-TAE684]", "property_label": "cell viability", "test_result": "102%"}
{"molecule": "CN(C)CCC=C1c2ccccc2C=Cc2ccccc21 [cyclobenzaprine]", "property_label": "cell viability", "test_result": "103%"}
{"molecule": "COC(c1ccccc1)(c1ccccc1)[C@H](Oc1nc(C)cc(C)n1)C(=O)O [ambrisentan]", "property_label": "cell viability", "test_result": "94.2%"}
{"molecule": "O=c1c(O)c(-c2ccc(O)c(O)c2)oc2cc(O)cc(O)c12 [quercetin]", "property_label": "cell viability", "test_result": "98%"}
{"molecule": "C/C(=C\\c1csc(C)n1)[C@@H]1C[C@@H]2O[C@]2(C)CCC[C@H](C)[C@H](O)[C@@H](C)C(=O)C(C)(C)[C@@H](O)CC(=O)O1 [epothilone-B]", "property_label": "cell viability", "test_result": "23.9%"}
{"molecule": "Cc1cc(SCc2sc(-c3ccc(C(F)(F)F)cc3)nc2C)ccc1OCC(=O)O", "property_label": "cell viability", "test_result": "99.9%"}
{"molecule": "COC(=O)C1=C(C)N(C)C(C)=C(C(=O)OC)C1c1ccc(C(F)(F)F)cc1 [BAY-W-9798]", "property_label": "cell viability", "test_result": "96.4%"}
{"molecule": "c1cc(CN2CCCNCCNCCCNCC2)ccc1CN1CCCNCCNCCCNCC1 [plerixafor]", "property_label": "cell viability", "test_result": "97.9%"}
{"molecule": "CN(C)CCOC1=Cc2ccccc2Sc2ccc(Cl)cc21 [zotepine]", "property_label": "cell viability", "test_result": "97.7%"}
{"molecule": "COCCCOc1cc(C[C@@H](C[C@H](N)[C@@H](O)C[C@H](C(=O)NCC(C)(C)C(N)=O)C(C)C)C(C)C)ccc1OC [aliskiren-hemifumarate]", "property_label": "cell viability", "test_result": "101%"}
{"molecule": "CC(C)C(=O)c1c(C(C)C)nn2ccccc12 [ibudilast]", "property_label": "cell viability", "test_result": "97.4%"}
{"molecule": "Oc1c(Br)cc(Br)c2cccnc12 [broxyquinoline]", "property_label": "cell viability", "test_result": "101%"}
{"molecule": "Cc1cc(OCCCS(C)(=O)=O)cc(C)c1-c1cccc(COc2ccc3c(c2)OC[C@H]3CC(=O)O)c1 [TAK-875]", "property_label": "cell viability", "test_result": "96.9%"}
{"molecule": "C=C[C@H]1CN2CC[C@H]1C[C@H]2[C@H](O)c1ccnc2ccccc12 [cinchonidine]", "property_label": "cell viability", "test_result": "97.8%"}
{"molecule": "O=C(N/N=C/c1ccc([N+](=O)[O-])o1)c1cc([N+](=O)[O-])cc([N+](=O)[O-])c1O [nifursol]", "property_label": "cell viability", "test_result": "104%"}

---

Reported drug sensitivity score by item:
- Tested on: U2OS
- assay_notes: drug sensitivity score (DSS) for viability; higher = more toxic; extreme values may be limits of the assay
- condition_info: 72 h

{"molecule": "CN(C)Cc1ccc(S(=O)(=O)n2ccc(/C=C/C(=O)NO)c2)cc1", "drug sensitivity score": 7.2}
{"molecule": "CCC(=N\\O)/C(C)=C/c1ccc(F)cc1", "drug sensitivity score": 0}
{"molecule": "CC(CC(C(N)=O)(c1ccccc1)c1ccccc1)N(C)C (stereo not given) [aminopentamide]", "drug sensitivity score": 0}
{"molecule": "CN(C)C/C=C/C(=O)Nc1cc2c(Nc3ccc(F)c(Cl)c3)ncnc2cc1O[C@H]1CCOC1", "drug sensitivity score": 6.2}
{"molecule": "O=C(O)CCc1c(C(=O)O)[nH]c2cc(Cl)cc(Cl)c12", "drug sensitivity score": 0}
{"molecule": "Oc1noc2c1CCNC2", "drug sensitivity score": 0}
{"molecule": "CCOCC(O)COc1ccc(NC(=O)CC[S+](C)C)cc1 (stereo not given)", "drug sensitivity score": 0}
{"molecule": "c1cc(-c2sc(-c3ccncc3)c(-c3ccncc3)c2-c2ccncc2)ccn1", "drug sensitivity score": 0}
{"molecule": "COC(c1ccccc1)(c1ccccc1)[C@H](Oc1nc(C)cc(C)n1)C(=O)O", "drug sensitivity score": 0}
{"molecule": "O=c1c(O)c(-c2ccc(O)c(O)c2)oc2cc(O)cc(O)c12", "drug sensitivity score": 0}

---

- System: Vero E6
- assay_notes: cell viability relative to DMSO; higher = less toxic
- condition_info: 72 h; 1 nM
property_label: cell viability (%)

{"molecule": "CN(C)C/C=C/C(=O)Nc1cc2c(Nc3ccc(F)c(Cl)c3)ncnc2cc1O[C@H]1CCOC1", "test_result": 101}
{"molecule": "c1cc(CN2CCCNCCNCCCNCC2)ccc1CN1CCCNCCNCCCNCC1", "test_result": 104}
{"molecule": "O=C(N[C@H]1CN2CCC1CC2)c1ccc2c(c1)OCCO2", "test_result": 100}
{"molecule": "O=C(O)CCNC(=O)c1ccccc1", "test_result": 94.6}
{"molecule": "CCCc1ncc(C[n+]2ccccc2C)c(N)n1", "test_result": 100}
{"molecule": "Cc1ccc(NC(=O)c2cccc(C(C)(C)C#N)c2)cc1Nc1ccc2ncn(C)c(=O)c2c1", "test_result": 101}
{"molecule": "COc1ncc(-c2ccc3nccc(-c4ccnnc4)c3c2)cc1NS(=O)(=O)c1ccc(F)cc1F", "test_result": 90.2}
{"molecule": "C[C@H](c1ccc2ccc(OC3CCC(C(F)(F)F)CC3)c(C(F)(F)F)c2c1)N1C2CCC1CC(C(=O)O)C2 (stereo partly drawn)", "test_result": 99.2}
{"molecule": "Cc1cc(Nc2cc(C)c(C#N)c(N[C@@H](C)CCCC(C)(C)O)n2)n[nH]1", "test_result": 105}
{"molecule": "Cc1nc(C#Cc2ccnc(Cl)c2)c(C)n1-c1ccc(F)cc1", "test_result": 106}
{"molecule": "CC(=O)O[C@]1(C(C)=O)CC[C@H]2[C@@H]3C[C@H](C)C4=CC(=O)CC[C@]4(C)[C@H]3CC[C@@]21C [medroxyprogesterone-acetate]", "test_result": 96.6}
{"molecule": "NC(=O)N/N=C/c1ccc(Oc2ccc(F)cc2)cc1", "test_result": 105}
{"molecule": "CN1C(=O)C[C@@H](C(=O)N[C@@H](Cc2c[nH]cn2)C(=O)N2CCC[C@H]2C(N)=O)NC1=O", "test_result": 99}
{"molecule": "CCOc1nc2cccc(C(=O)O)c2n1Cc1ccc(-c2ccccc2-c2nnn[nH]2)cc1", "test_result": 102}
{"molecule": "COc1cc2c(cc1OC)CN(CCc1ccc(NC(=O)c3cccc4c(=O)c5cccc(OC)c5[nH]c34)cc1)CC2", "test_result": 97}
{"molecule": "Nc1cccc(CNC(=O)c2ccc(Oc3ccc(OCc4cccc(F)c4)cc3)nc2)c1", "test_result": 93.4}
{"molecule": "COc1cccc(CN(C(=O)CC(C)(C)C)[C@H]2C[C@@H](C(=O)N3CCNCC3)N(Cc3ccc4c(c3)OCO4)C2)c1", "test_result": 101}
{"molecule": "CCOC(=O)[C@@]1(CCCCCCOc2ccc(Cl)cc2)CO1", "test_result": 113}
